Where do the numbers come from? From patent US10112935B2.

- tgt: GST-tagged human ROCK2 catalytic domain 1-553 (Homo sapiens (Human))
- procedure text: Inhibition of Rho-associated protein kinase isoform 2 (LANCE Ultra ULight-CREBtide FRET kinase assay)
- Type: biochemical
- test context: selectivity ROCK2 vs ROCK1
reported property: Selectivity for ROCK2 over ROCK1 (IC50 ROCK1 / IC50 ROCK2)

compound="Cn1cccc(-c2nnc(Nc3ccc4[nH]ncc4c3Cl)s2)c1=O.O=C(O)C(F)(F)F [Example 56H]" result=>100
compound=CS(=O)(=O)Nc1cncc(-c2nnc(Nc3ccc4[nH]ncc4c3)s2)c1 result=<5
compound="N[C@@H](Cc1ccc(O)cc1)C(=O)Nc1cccc(-c2nnc(Nc3ccc4[nH]ncc4c3Cl)s2)c1.O=C(O)C(F)(F)F [Example 35AK]" result=<5
compound="O=C(Nc1cccc(-c2nnc(Nc3ccc4[nH]ncc4c3Cl)s2)c1)N1CCNCC1 [Example 35T]" result=>5
compound="CC1CCCCC1C(=O)Nc1cccc(-c2nnc(Nc3ccc4[nH]ncc4c3Cl)s2)c1 (stereo not drawn) [Example 35H]" result=>5

Please fill in: Selectivity for ROCK2 over ROCK1 (IC50 ROCK1 / IC50 ROCK2) reported for Clc1c(Nc2nnc(-c3cccc(-c4nnn[nH]4)c3)s2)ccc2[nH]ncc12 [Example 41D] = >50

Please fill in: Selectivity for ROCK2 over ROCK1 (IC50 ROCK1 / IC50 ROCK2) reported for CC(C)C[C@H](N)C(=O)Nc1cccc(-c2nnc(Nc3ccc4[nH]ncc4c3Cl)s2)c1 [Example 35BA] = >5

Please fill in: Selectivity for ROCK2 over ROCK1 (IC50 ROCK1 / IC50 ROCK2) reported for CCS(=O)(=O)Nc1cncc(-c2nnc(Nc3ccc4[nH]ncc4c3)s2)c1 = >5

Please fill in: Selectivity for ROCK2 over ROCK1 (IC50 ROCK1 / IC50 ROCK2) reported for CN1CCN(c2cc(-c3nnc(Nc4ccc5[nH]ncc5c4Cl)s3)ccn2)C1=O = >5

Please fill in: Selectivity for ROCK2 over ROCK1 (IC50 ROCK1 / IC50 ROCK2) reported for COc1cccc(-c2nnc(N(CCO)c3ccc4[nH]ncc4c3)s2)c1 = <5

Please fill in: Selectivity for ROCK2 over ROCK1 (IC50 ROCK1 / IC50 ROCK2) reported for CC(=O)Nc1cc(F)c(F)c(-c2nnc(Nc3ccc4[nH]ncc4c3Cl)s2)c1.O=C(O)C(F)(F)F [Example 35BB] = >100

Please fill in: Selectivity for ROCK2 over ROCK1 (IC50 ROCK1 / IC50 ROCK2) reported for Cn1ccc(C(=O)Nc2cccc(-c3nnc(Nc4ccc5[nH]ncc5c4)s3)c2)n1 = >5

Please fill in: Selectivity for ROCK2 over ROCK1 (IC50 ROCK1 / IC50 ROCK2) reported for CC(C)NC(=O)COc1cccc(-c2nnc(Nc3ccc4[nH]ncc4c3)s2)c1 [Example 35CP] = >5

Please fill in: Selectivity for ROCK2 over ROCK1 (IC50 ROCK1 / IC50 ROCK2) reported for c1cc(-c2cn[nH]c2)cc(-c2nnc(Nc3ccc4[nH]ncc4c3)s2)c1 = >100

Please fill in: Selectivity for ROCK2 over ROCK1 (IC50 ROCK1 / IC50 ROCK2) reported for CC(=O)Nc1cccc(-c2nnc(Nc3ccc4[nH]ncc4c3C(C)C)s2)c1 [Example 35I] = >5

Please fill in: Selectivity for ROCK2 over ROCK1 (IC50 ROCK1 / IC50 ROCK2) reported for O=C(O)c1cccc(-c2nnc(Nc3ccc4[nH]ncc4c3)s2)c1 = >5

Please fill in: Selectivity for ROCK2 over ROCK1 (IC50 ROCK1 / IC50 ROCK2) reported for COc1ncc(C(=O)Nc2cccc(-c3nnc(Nc4ccc5[nH]ncc5c4Cl)s3)c2)cn1.O=C(O)C(F)(F)F [Example 35AU] = >100

Please fill in: Selectivity for ROCK2 over ROCK1 (IC50 ROCK1 / IC50 ROCK2) reported for CC(=O)Nc1cccc(-c2nnc(Nc3ccc4[nH]ncc4c3C(F)(F)F)s2)c1 [Example 35AL] = >5

Please fill in: Selectivity for ROCK2 over ROCK1 (IC50 ROCK1 / IC50 ROCK2) reported for c1cc(-c2nnc(Nc3ccc4[nH]ncc4c3)s2)cc(N2CCNCC2)c1 [Example 75H] = >5

Please fill in: Selectivity for ROCK2 over ROCK1 (IC50 ROCK1 / IC50 ROCK2) reported for Cc1cc(C(=O)Nc2cccc(-c3nnc(Nc4ccc5[nH]ncc5c4)s3)c2)no1 = >100

Please fill in: Selectivity for ROCK2 over ROCK1 (IC50 ROCK1 / IC50 ROCK2) reported for Cn1cc(C(=O)Nc2cc(-c3nnc(Nc4ccc5[nH]ncc5c4)s3)ccn2)cn1.O=C(O)C(F)(F)F [Example 35BY] = >100

Please fill in: Selectivity for ROCK2 over ROCK1 (IC50 ROCK1 / IC50 ROCK2) reported for O=C1Cc2cccc(-c3nnc(Nc4ccc5[nH]ncc5c4Cl)s3)c2N1 [Example 56E] = >50

Please fill in: Selectivity for ROCK2 over ROCK1 (IC50 ROCK1 / IC50 ROCK2) reported for CC(=O)Nc1cc(CSC(C)=O)cc(-c2nnc(Nc3ccc4[nH]ncc4c3Cl)s2)c1 = >100

Please fill in: Selectivity for ROCK2 over ROCK1 (IC50 ROCK1 / IC50 ROCK2) reported for CC(=O)c1ccc(-c2cn3cccc(-c4nnc(Nc5ccc6[nH]ncc6c5Cl)s4)c3n2)cc1 = >100

* * *

Listing: IC50 of selected compounds
- tgt: GST-tagged human ROCK2 catalytic domain 1-553 (Homo sapiens (Human), UniProt O75116)
- Sequence (O75116 1-553): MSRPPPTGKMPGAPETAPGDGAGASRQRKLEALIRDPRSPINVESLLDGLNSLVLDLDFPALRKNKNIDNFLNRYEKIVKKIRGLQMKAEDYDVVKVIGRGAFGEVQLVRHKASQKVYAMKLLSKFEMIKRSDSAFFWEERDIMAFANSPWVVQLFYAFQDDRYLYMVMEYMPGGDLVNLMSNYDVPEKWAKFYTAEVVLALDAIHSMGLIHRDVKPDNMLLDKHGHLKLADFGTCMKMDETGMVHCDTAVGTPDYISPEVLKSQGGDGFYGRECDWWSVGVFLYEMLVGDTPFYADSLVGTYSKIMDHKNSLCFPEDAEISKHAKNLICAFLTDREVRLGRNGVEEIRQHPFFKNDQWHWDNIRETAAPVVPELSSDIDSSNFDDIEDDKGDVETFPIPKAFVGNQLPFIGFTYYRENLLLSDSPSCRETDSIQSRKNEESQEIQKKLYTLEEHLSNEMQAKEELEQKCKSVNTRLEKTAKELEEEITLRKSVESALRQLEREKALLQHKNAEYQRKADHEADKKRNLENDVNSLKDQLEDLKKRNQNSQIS
- procedure text: Inhibition of Rho-associated protein kinase isoform 2 (LANCE Ultra ULight-CREBtide FRET kinase assay)
- Type: biochemical
- test context: 30 μM was the highest concentration analyzed

compound="Clc1c(Nc2nnc(-c3cccc4c3ncn4CCN3CCCC3)s2)ccc2[nH]ncc12 [Example 56A]" result="1 to 15 µM"
compound=CCn1cc(C(=O)Nc2cccc(-c3nnc(Nc4ccc5[nH]ncc5c4)s3)c2)cn1 result="< 1 µM"
compound="CN1C(=O)Cc2cccc(-c3nnc(Nc4ccc5[nH]ncc5c4Cl)s3)c21 [Example 56C]" result="1 to 15 µM"
compound="CC(=O)Nc1cccc(-c2nnc(Nc3ccc4[nH]ncc4c3Cl)s2)c1 [Example 35Y]" result="< 1 µM"
compound="CC(=O)Nc1ccc(S(C)(=O)=O)c(-c2nnc(Nc3ccc4[nH]ncc4c3Cl)s2)c1 [Example 48E]" result="1 to 15 µM"

Please fill in: IC50 reported for CC(C)(O)c1ccc(-c2cn3cccc(-c4nnc(Nc5ccc6[nH]ncc6c5Cl)s4)c3n2)cc1 [Example 50F] = < 1 µM

Please fill in: IC50 reported for Clc1c(Nc2nnc(-c3cccc(-c4ncco4)c3)s2)ccc2[nH]ncc12 [Example 46O] = < 1 µM

Please fill in: IC50 reported for Nc1cncc(-c2nnc(Nc3ccc4[nH]ncc4c3)s2)n1 = 1 to 15 µM

Please fill in: IC50 reported for OC1(c2cccc(-c3nnc(Nc4ccc5[nH]ncc5c4Cl)s3)c2)COC1 [Example 35AJ] = < 1 µM

Please fill in: IC50 reported for O=C(O)C(F)(F)F.OCCn1ccnc1-c1cccc(-c2nnc(Nc3ccc4[nH]ncc4c3Cl)s2)c1 [Example 45A] = < 1 µM

* * *

Listing: Selectivity for ROCK2 over ROCK1 (IC50 ROCK1 / IC50 ROCK2) of selected compounds
- tgt: GST-tagged human ROCK2 catalytic domain 1-553 (Homo sapiens (Human), UniProt O75116)
- procedure text: Inhibition of Rho-associated protein kinase isoform 2 (LANCE Ultra ULight-CREBtide FRET kinase assay)
- Type: biochemical
- test context: selectivity ROCK2 vs ROCK1

compound=c1cc(-c2cnco2)cc(-c2nnc(Nc3ccc4[nH]ncc4c3)s2)c1 result=<5
compound="O=C1Cc2c(cccc2-c2nnc(Nc3ccc4[nH]ncc4c3Cl)s2)N1 [Example 56D]" result=>100
compound="O=C(O)C(F)(F)F.O=C(O)c1cc(-c2ncco2)cc(-c2nnc(Nc3ccc4[nH]ncc4c3Cl)s2)c1 [Example 46N]" result=>5

Please fill in: Selectivity for ROCK2 over ROCK1 (IC50 ROCK1 / IC50 ROCK2) reported for O=C(Cc1ncccn1)Nc1cccc(-c2nnc(Nc3ccc4[nH]ncc4c3Cl)s2)c1 [Example 35AP] = <5

Please fill in: Selectivity for ROCK2 over ROCK1 (IC50 ROCK1 / IC50 ROCK2) reported for COCCn1ccnc1-c1cccc(-c2nnc(Nc3ccc4[nH]ncc4c3Cl)s2)c1.O=C(O)C(F)(F)F = >5

* * *

- tgt: GST-tagged human ROCK2 catalytic domain 1-553 (Homo sapiens (Human))
- procedure text: Inhibition of Rho-associated protein kinase isoform 2 (LANCE Ultra ULight-CREBtide FRET kinase assay)
- Assay type: biochemical
- test context: selectivity ROCK2 vs ROCK1
Listing: Selectivity for ROCK2 over ROCK1 (IC50 ROCK1 / IC50 ROCK2) of selected compounds

compound="O=C(Nc1cccc(-c2nnc(Nc3ccc4[nH]ncc4c3)s2)c1)C(O)CO (stereo not drawn) [Example 35CI]" result=<5

Please fill in: Selectivity for ROCK2 over ROCK1 (IC50 ROCK1 / IC50 ROCK2) reported for O=C(O)COc1cccc(-c2nnc(Nc3ccc4[nH]ncc4c3)s2)c1 = >5

Please fill in: Selectivity for ROCK2 over ROCK1 (IC50 ROCK1 / IC50 ROCK2) reported for CN(c1nnc(-c2cccc(NC(=O)Cc3ccc(C#N)cc3)c2)s1)c1ccc2[nH]ncc2c1Cl [Example 54B] = <5
